- tested.target: β-lactamase P99 (Enterobacter cloacae, UniProt P05364)
- Construct: The β-lactamases are isolated from bacterial strains resistant to penicillins and to cephalosporins; endogenous in cells; host or cells: Enterobacter cloacae 293HT6, soluble fraction of French-press lysate
- Sequence (P05364 21-381): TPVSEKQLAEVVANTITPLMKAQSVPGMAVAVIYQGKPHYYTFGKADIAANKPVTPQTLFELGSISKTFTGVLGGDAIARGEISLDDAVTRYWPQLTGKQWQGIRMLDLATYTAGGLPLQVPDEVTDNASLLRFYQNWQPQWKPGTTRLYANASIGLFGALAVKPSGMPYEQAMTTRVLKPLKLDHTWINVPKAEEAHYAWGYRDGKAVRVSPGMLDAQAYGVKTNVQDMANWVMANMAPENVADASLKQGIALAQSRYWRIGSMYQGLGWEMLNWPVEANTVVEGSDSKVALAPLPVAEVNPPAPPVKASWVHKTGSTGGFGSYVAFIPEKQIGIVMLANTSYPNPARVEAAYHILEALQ
- test.details: Inhibitory activity for β-lactamases (nitrocefin hydrolysis)
- Format: biochemical
- condition.parameters: after 5 min of preincubation with the enzyme; 100 μM nitrocefin, 50 mM sodium phosphate buffer pH 7.0, 37° C.; read-out: IC50 nM/P99
readout.kind: IC50 (nM)
Answers are plain numbers, in nM.

Known IC50 results, listed for orientation:
INPUT: Which IC50 value is on record for C=CCON1C(=O)N2CC1c1ccccc1N2C(=O)NS(=O)(=O)c1ccccc1 (stereo not shown) ?
OUTPUT: 110000

INPUT: Which IC50 value is on record for CCOC(=O)CN1c2ccccc2C2CN1C(=O)N2OS(=O)(=O)O (stereo not shown) ?
OUTPUT: 530

Batch of 2 compounds: report IC50 for each.
1. C=CCON1C(=O)N2CC1c1ccccc1N2Cc1cccnc1 (stereo not shown)
2. CN1c2ccccc2C2CN1C(=O)N2OS(=O)(=O)O (stereo not shown)

OUTPUT:
1: 17000; 2: 37000
